% solids dissolved in Et-LPK with heat, no precipitation reference
- protocol: Solubility of active agents in neat alkyl ketal esters (dissolution, storage at room temperature)
- run-parameters: solvent Et-LPK; dissolved at 50-80° C. or with heat; still soluble after storage at room temperature (24 hours to 5 days)
Record the value in %, omitting the unit from your answer.

Examples from the recorded data:
compound	unit-label	measured-result
Oc1ccc(C=Cc2cc(O)cc(O)c2)cc1	%	0.5
Oc1ccc(O)cc1 [Hydroquinone]	%	10
COc1ccc(C(=O)c2ccccc2)c(O)c1	%	30

Now for another entry.
Input: Please supply the value of reported % solids dissolved in Et-LPK with heat, no precipitation for the item COc1cc(CCC(=O)CC(=O)CCc2ccc(O)c(OC)c2)ccc1O [Tetrahydrocurcuminoids, tetrahydrodiferuloylmethane]
Output: 5

Value source: patent US9549886B2
